- TARGET_OF_ASSAY: human CD28 (human, UniProt P10747 19-220)
- MEASUREMENT_DESCRIPTION: cell-based or functional assay
PROPERTY_LABEL: MLR assay (EC50) (nM)

Worked examples, 6 binders total:
1h-99-229 (other) VH: EVQLLESGGGLVQPGGSLRLSCAASGFTFARTNMSWARQAPGKGLEWVSWIEDTGTQTFYADSVKGRFTISRDNSKNTLYLQMNSLRAEDTAVYYCAKSPFGPLYGFDYRGQGTLVTVSS | 24
1h-99-254 (other) VH: EVQLLESGGGLVQPGGSLRLSCAASGFTFDSANMSWARQAPGKGLEWVSWIESSGGQTFYADSVKGRFTISRDNSKNTLYLQMNSLRAEDTAVYYCAKSPFGPLYGFDYRGQGTLVTVSS | 7
1h-79-29 (other) VL: DIQMTQSPSSLSASVGDRVTITCRASQPIGHSLGWYQQKPGKAPKLLIYWASMLQSGVPSRFSGSGSGTDFTLTISSLQPEDFATYYCQQMLRTPFAFGQGTKVEIKR | 150
1h-80-1 (other) VL: DIQMTQSPSSLSASVGDRVTITCRASQRIGSNLAWYQQKPGRAPKLLIYWASLLQSGVPSRFSGSGSGTDFTLIISSLQPEDFATYYCQQTRSAPFAFGQGTKVEIKR | 438
1h-99-227 (other) VH: EVQLLESGGGLVQPGGSLRLSCAASGFTFNHANMSWVRQAPGKGLEWVSWIEDTGTQTFYADSVKGRFTISRDNYKNTLYLQMNSLRAEDTAVYYCAKSPFGPLYGFDYRGQGTLVTVSS | 33
1h-99-269 (other) VH: EVQLLESGGGLVQPGGSLRLSCAASGFTFKSANMSWVRQAPGKGLEWVSWIEASGVQTFYADSVKGRFTISRDNSKNTLYLQMNSLRAEDTAVYYCAKSPFGPLYGFDYRGQGTLVTVSS | 5

[I] 1h-239-849 (other) VL: DIQMTQSPSSLSASVGDRVTITCRASQSIYPFLEWYQQKPGKAPKLLIYFTSKLTRGVPSRFSGSGSGADFTLTISNLQPEDFATYYCLQNVTNPATFSQGTKVEIKR
[II] 1h-99-228 (other) VH: EVQLLESGGGLVQPGGSLRLSCAASGFTFHRANMSWVRQAPGKGLEWVSWIEDTGTQTFYADSVKGRFTISRDNSKNTLYLQMNSLRAEDTAVYYCAKSPFGPLYGSDYRGQGTLVTVSS
*Q* Between the entries labeled I and II , whose measured MLR assay (EC50) is lower? Answer format: the label of the selected item.
*A* I
(I: 10 nM, II: 46 nM)
